Data credit: patent US10464978B2

Target: HLA-A*02:01 (Homo sapiens, UniProt P04439, D140Y/D185E/D98H/E176V/E277Q/G131W/G231S/I119V/I121R/I166T/I218V/L300P/L318F/N151K/N90K/P208A/P217A/Q86G/Q94H/R138H/R169H/T345S)
Experiment: MHC binding assay: UV-ligand exchange with beta2m ELISA (peptide exchange yield)
Settings: binding to HLA-A*02:01
result.type: Peptide exchange (MHC class I binding score, peptide exchange yield)

Answered cases to consult:
>  <substance>
174 (ALAQYLITA; listed as Homo sapiens) [compound 174]

>  <meas.value>
“+++” (≥50 = +++)

$$$$
>  <substance>
576 (ILLNNSGQIKL; listed as Homo sapiens) [compound 576]

>  <meas.value>
“++++” (≥75% = ++++)

$$$$
>  <substance>
521 (MLLTKLPTI; listed as Homo sapiens) [compound 521]

>  <meas.value>
“+++” (≥50 = +++)

$$$$
>  <substance>
456 (LLIGHLERV; listed as Homo sapiens) [compound 456]

>  <meas.value>
“+++” (≥50 = +++)

$$$$
>  <substance>
107 (FLQPVDDTQHL; listed as Homo sapiens) [compound 107]

>  <meas.value>
“+++” (≥50 = +++)

$$$$
>  <substance>
8 (FTLGNVVGMYL; listed as Homo sapiens) [compound 8]

>  <meas.value>
“++++” (≥75% = ++++)

$$$$
>  <substance>
211 (LLWPGAALL; listed as Homo sapiens) [compound 211]

>  <meas.value>
“++” (≥20% = ++)

$$$$
>  <substance>
75 (GLLEVMVNL; listed as Homo sapiens) [compound 75]

>  <meas.value>
“+++” (≥50 = +++)

$$$$

Entry 40 (TLLVKVFSV; listed as Homo sapiens) [compound 40] — recorded Peptide exchange (MHC class I binding score, peptide exchange yield) = “+++” (≥50 = +++)

Entry 92 (YLIPFTGIVGL; listed as Homo sapiens) [compound 92] — recorded Peptide exchange (MHC class I binding score, peptide exchange yield) = “++” (≥20% = ++)

Entry 545 (LLADLLHNV; listed as Homo sapiens) [compound 545] — recorded Peptide exchange (MHC class I binding score, peptide exchange yield) = “+++” (≥50 = +++)

Entry 384 (ILFANPNIFV; listed as Homo sapiens) [compound 384] — recorded Peptide exchange (MHC class I binding score, peptide exchange yield) = “+++” (≥50 = +++)

Entry 257 (SIFSAFLSV; listed as Homo sapiens) [compound 257] — recorded Peptide exchange (MHC class I binding score, peptide exchange yield) = “+++” (≥50 = +++)

Entry 438 (KLLPLAGLYL; listed as Homo sapiens) [compound 438] — recorded Peptide exchange (MHC class I binding score, peptide exchange yield) = “++++” (≥75% = ++++)

Entry 337 (HLLSELEAAPYL; listed as Homo sapiens) [compound 337] — recorded Peptide exchange (MHC class I binding score, peptide exchange yield) = “++++” (≥75% = ++++)

Entry 266 (KITDTLIHL; listed as Homo sapiens) [compound 266] — recorded Peptide exchange (MHC class I binding score, peptide exchange yield) = “+++” (≥50 = +++)

Entry 528 (SVAEGRALMSV; listed as Homo sapiens) [compound 528] — recorded Peptide exchange (MHC class I binding score, peptide exchange yield) = “+++” (≥50 = +++)

Entry 597 (KLLEGQVIQL; listed as Homo sapiens) [compound 597] — recorded Peptide exchange (MHC class I binding score, peptide exchange yield) = “+++” (≥50 = +++)

Entry 170 (RLQETLSAA; listed as Homo sapiens) [compound 170] — recorded Peptide exchange (MHC class I binding score, peptide exchange yield) = “+++” (≥50 = +++)
